experiment: Clearance in Wistar rat; type: ADME, organism-based; details: in vivo
Assay endpoint: clearance (mL/min/kg)

[[record]]
smiles_string = "CC(C)N(CCO)Cc1csc(-c2cn(CC3CCOCC3)c3c(Cl)cccc23)n1"
reported_result = 127


* * *

assay: Intrinsic clearance in rat liver microsomes; format: ADME, Microsome
Assay endpoint: microsomal CLint

[[record]]
smiles_string = "COC1CCN(Cc2csc(-c3cn(CC4CCOCC4)c4c(Cl)cccc34)n2)CC1"
reported_result = "> 270 µL/min/mg"

[[record]]
smiles_string = "CN(CCO)Cc1csc(-c2cn(CC3CCOCC3)c3c(Cl)cccc23)n1"
reported_result = "167 µL/min/mg"

[[record]]
smiles_string = "COCCN(C)Cc1csc(-c2cn(CC3CCCCC3)c3c(Cl)cccc23)n1"
reported_result = "22 µL/min/mg"

[[record]]
smiles_string = "CC(C)N(CCO)Cc1csc(-c2cn(CC3CCOCC3)c3c(Cl)cccc23)n1"
reported_result = "> 160 µL/min/mg"

[[record]]
smiles_string = "CCc1sc(-c2cn(CC3CCOCC3)c3c(Cl)cccc23)nc1CN(CC)CCO"
reported_result = "> 270 µL/min/mg"

[[record]]
smiles_string = "OC1CCN(Cc2csc(-c3cn(CC4CCOCC4)c4c(Cl)cccc34)n2)CC1"
reported_result = "16 µL/min/mg"

[[record]]
smiles_string = "Clc1cccc2c(-c3nc(CN4CCOCC4)cs3)cn(CC3CCOCC3)c12"
reported_result = "> 270 µL/min/mg"

[[record]]
smiles_string = "OCCN(CCO)Cc1csc(-c2cn(CC3CCOCC3)c3c(Cl)cccc23)n1"
reported_result = "> 270 µL/min/mg"


* * *

test: Half life in ICR mouse; type: ADME, organism-based; conditions: in vivo
Assay endpoint: half-life (h)

[[record]]
smiles_string = "CC(C)N(CCO)Cc1csc(-c2cn(CC3CCOCC3)c3c(Cl)cccc23)n1"
assay_endpoint = "half-life"
unit_abbrev = "h"
reported_result = 1.38

[[record]]
smiles_string = "CCc1cccc2c(-c3nsc(CN4CCCC4)n3)cn(CC3CCCCC3)c12.Cl"
assay_endpoint = "half-life"
unit_abbrev = "h"
reported_result = 1.2


* * *

assay: Intrinsic clearance in human liver microsomes; assay type: ADME, Microsome
Assay endpoint: microsomal CLint (µL/min/mg)

[[record]]
smiles_string = "COC1CCN(Cc2csc(-c3cn(CC4CCOCC4)c4c(Cl)cccc34)n2)CC1"
bound_sign = "="
reported_result = 80.4

[[record]]
smiles_string = "CCc1sc(-c2cn(CC3CCOCC3)c3c(Cl)cccc23)nc1CN(CC)CCO"
bound_sign = "="
reported_result = 114

[[record]]
smiles_string = "COCCN(C)Cc1csc(-c2cn(CC3CCCCC3)c3c(Cl)cccc23)n1"
bound_sign = "="
reported_result = 36

[[record]]
smiles_string = "CN(CCO)Cc1csc(-c2cn(CC3CCOCC3)c3c(Cl)cccc23)n1"
bound_sign = "<"
reported_result = 16

[[record]]
smiles_string = "CC(C)N(CCO)Cc1csc(-c2cn(CC3CCOCC3)c3c(Cl)cccc23)n1"
bound_sign = "="
reported_result = 161

[[record]]
smiles_string = "Clc1cccc2c(-c3nc(CN4CCOCC4)cs3)cn(CC3CCOCC3)c12"
bound_sign = "="
reported_result = 97.9

[[record]]
smiles_string = "OCCN(CCO)Cc1csc(-c2cn(CC3CCOCC3)c3c(Cl)cccc23)n1"
bound_sign = "="
reported_result = 111

[[record]]
smiles_string = "OC1CCN(Cc2csc(-c3cn(CC4CCOCC4)c4c(Cl)cccc34)n2)CC1"
bound_sign = "="
reported_result = 12


* * *

assay: Ratio of Cmax in brain to plasma in ICR mouse; type: ADME; conditions: brain and plasma
Assay endpoint: Kp

[[record]]
smiles_string = "CC(C)N(CCO)Cc1csc(-c2cn(CC3CCOCC3)c3c(Cl)cccc23)n1"
reported_result = 3.9

[[record]]
smiles_string = "CCc1cccc2c(-c3nsc(CN4CCCC4)n3)cn(CC3CCCCC3)c12.Cl"
reported_result = 0.05


* * *

assay: Volume of distribution at steady state in Beagle dog; format: ADME, organism-based, Canis lupus familiaris; details: in vivo, read-out: Vdss
Assay endpoint: Vd (L/kg)

[[record]]
smiles_string = "CC(C)N(CCO)Cc1csc(-c2cn(CC3CCOCC3)c3c(Cl)cccc23)n1"
reported_result = 5


* * *

assay: Volume of distribution at steady state in Wistar rat; type: ADME, organism-based; conditions: in vivo, read-out: Vdss
Assay endpoint: Vd (L/kg)

[[record]]
smiles_string = "CC(C)N(CCO)Cc1csc(-c2cn(CC3CCOCC3)c3c(Cl)cccc23)n1"
assay_endpoint = "Vd"
reported_result = 15


* * *

test: Volume of distribution at steady state in ICR mouse; format: ADME, organism-based; settings: in vivo, read-out: Vdss
Assay endpoint: Vd (L/kg)

[[record]]
smiles_string = "CCc1cccc2c(-c3nsc(CN4CCCC4)n3)cn(CC3CCCCC3)c12.Cl"
assay_endpoint = "Vd"
reported_result = 1.4

[[record]]
smiles_string = "CC(C)N(CCO)Cc1csc(-c2cn(CC3CCOCC3)c3c(Cl)cccc23)n1"
assay_endpoint = "Vd"
reported_result = 11.3


* * *

The reader will find reported clearance values listed item by item below.
experiment: Clearance in ICR mouse; type: ADME, organism-based; details: in vivo
Assay endpoint: clearance (mL/min/kg)

[[record]]
smiles_string = "CCc1cccc2c(-c3nsc(CN4CCCC4)n3)cn(CC3CCCCC3)c12.Cl"
reported_result = 28

[[record]]
smiles_string = "CC(C)N(CCO)Cc1csc(-c2cn(CC3CCOCC3)c3c(Cl)cccc23)n1"
reported_result = 159


* * *

experiment: Half life in Beagle dog; format: ADME, organism-based, Canis lupus familiaris; settings: in vivo
Assay endpoint: half-life (h)

[[record]]
smiles_string = "CC(C)N(CCO)Cc1csc(-c2cn(CC3CCOCC3)c3c(Cl)cccc23)n1"
assay_endpoint = "half-life"
unit_abbrev = "h"
reported_result = 3


* * *

assay: Intrinsic clearance in mouse hepatic microsomes; assay type: ADME, Microsome; settings: liver microsomes
Assay endpoint: microsomal CLint (µL/min/mg)

[[record]]
smiles_string = "CC(C)N(CCO)Cc1csc(-c2cn(CC3CCOCC3)c3c(Cl)cccc23)n1"
assay_endpoint = "microsomal CLint"
reported_result = 176


* * *

assay: Clearance in Beagle dog; format: ADME, organism-based, Canis lupus familiaris; details: in vivo
Assay endpoint: clearance (mL/min/kg)

[[record]]
smiles_string = "CC(C)N(CCO)Cc1csc(-c2cn(CC3CCOCC3)c3c(Cl)cccc23)n1"
unit_abbrev = "mL/min/kg"
reported_result = 28


Attribution: ChEMBL document CHEMBL1759932
